meta.source: the Deep4Chem optical property database

Assay: solvent given as SMILES
Details: in CC#N
Binary call on emission maximum with cut-off 400 nm: strictly below means true (1), and equality or higher means false (0).

The following compounds have reported results that may help.
compound: C#CCn1c2ccccc2c2cc(/C=C/C3=[N+]4C(=C(c5ccc(I)cc5)c5c(C)c(Cl)c(/C=C/c6ccc7c(c6)c6ccccc6n7CC#C)n5[B-]4(F)F)C(C)=C3Cl)ccc21
cat: false (0)
--
compound: F[B-]1(F)n2c(nc(Br)c2Br)-c2cccc[n+]21
cat: false (0)
--
compound: CN(c1ccccc1)c1ccc(/C=C/c2ccccc2)cc1
cat: false (0)

For this compound, is emission maximum lower than 400 nm? `Cc1ccc2oc(-c3cc4cc(C)ccc4oc3=O)cc2c1` false (0)

For this compound, is emission maximum lower than 400 nm? CC(=O)Nc1ccccc1C(=O)OC1CC(C)CCC1C(C)C (stereo not given) true (1)

For this compound, is emission maximum lower than 400 nm? `Fc1nc(F)c(F)c(C#Cc2ccccc2C#Cc2c(F)c(F)nc(F)c2F)c1F` true (1)
